Field pIC50: reported value for Pancreatic triacylglycerol lipase (Sus scrofa); entries drawn from several documents.
pIC50: −log10 of the molar value.

molecule	pIC50
Oc1cc(O)c2c(c1)O[C@H](c1cc(O)c(O)c(O)c1)[C@@H](O)[C@@H]2c1c(O)cc(O)c2c1O[C@H](c1ccc(O)c(O)c1)[C@H](O)C2	5.54
Oc1cc(O)c2c(c1)O[C@H](c1cc(O)c(O)c(O)c1)[C@H](O)[C@H]2c1c(O)cc(O)c2c1O[C@H](c1cc(O)c(O)c(O)c1)[C@H](O)C2	5.53
O=C(OC[C@H]1OC(OC(=O)c2cc(O)c(O)c(O)c2)[C@H](OC(=O)c2cc(O)c(O)c(O)c2)[C@@H](O)[C@@H]1OC(=O)c1cc(O)c(O)c(O)c1)c1cc(O)c(O)c(O)c1 (some centres unmarked)	6.69
CCCCCCCCCCCC1=C(OC(=O)c2ccccc2)C(=O)C=C(OC(=O)c2ccccc2)C1=O	4.26
Oc1cc(O)c2c(c1)O[C@H](c1ccc(O)c(O)c1)[C@@H](O)[C@@H]2c1c(O)cc(O)c2c1O[C@H](c1cc(O)c(O)c(O)c1)[C@H](O)C2	5.10

---

Ok so here's the combined literature set: IC50 for Pancreatic triacylglycerol lipase (Sus scrofa, UniProt P00591).
# condition met = IC50 below 1000 nM (exclusive); condition not met = IC50 at/above 1000 nM

>>> print(df.to_string())
                                   molecule       answer_label
0  CCC(C)NC(=O)OC1CC(C)CC(C)(C)C1 (stereo not shown)  condition not met
1  O=C(O[C@@H]1O[C@@H]2COC(=O)c3cc(O)c(O)c(O)c3-c3c(cc(O)c(O)c3O)C(=O)O[C@H]2[C@H](O)[C@H]1O)c1cc(O)c(O)c(O)c1      condition met
2  COc1ccccc1NC(=O)OC1C(C)CCC(C)C1C (stereo not shown)  condition not met
3   CC(C)Oc1nn(-c2cccc(OC(F)(F)F)c2)c(=O)o1  condition not met
4  O=C(OCC1OC(OC(=O)c2cc(O)c(O)c(O)c2)C(O)C(O)C1OC(=O)c1cc(O)c(O)c(O)c1)c1cc(O)c(O)c(O)c1 (stereo not shown)  condition not met
5  O=C(O[C@@H]1Cc2c(O)cc(O)cc2O[C@@H]1c1cc(O)c(=O)c2c(O)c(O)ccc2c1)c1cc(O)c(O)c(O)c1      condition met
6  CCCCCCNC(=O)OC1CC(C)CC(C)(C)C1 (stereo not shown)  condition not met

---

Record set: IC50 | Pancreatic triacylglycerol lipase (Sus scrofa, UniProt P00591) | literature, multiple sources.
value_kind: IC50 (nM)

compound	experimental_system	relation	numeric_readout
CCCCNc1nc2sc(C)cc2c(=O)o1	Pancreatic triacylglycerol lipase (Sus scrofa, UniProt P00591)	≤	1000
O=C(O[C@@H]1Cc2c(O)cc(O)c([C@H]3c4c(O)cc(O)cc4O[C@H](c4ccc(O)c(O)c4)[C@@H]3O)c2O[C@@H]1c1cc(O)c(O)c(O)c1)c1cc(O)c(O)c(O)c1	Pancreatic triacylglycerol lipase (Sus scrofa, UniProt P00591)	=	147
CCNC(=O)OC1CCC(C)C(C)C1 (centres unmarked)	Pancreatic triacylglycerol lipase (Sus scrofa, UniProt P00591)	=	420000
O=c1oc(Oc2ccc(Oc3cccc(C(F)(F)F)c3)cc2)nc2ccsc12	Pancreatic triacylglycerol lipase (Sus scrofa, UniProt P00591)	≤	1000
O=c1oc(Nc2ccc(Oc3cccc(C(F)(F)F)c3)cc2)nc2sccc12	Pancreatic triacylglycerol lipase (Sus scrofa, UniProt P00591)	≤	1000
CCNC(=O)OC1CCCC(C)C1C (centres unmarked)	Pancreatic triacylglycerol lipase (Sus scrofa, UniProt P00591)	=	240000
O=c1oc(Nc2ccc(Cc3ccccc3)cc2)nc2sccc12	Pancreatic triacylglycerol lipase (Sus scrofa, UniProt P00591)	≤	1000
O=C(OC1Cc2c(O)cc(O)c(C(c3cc(O)c(O)c(O)c3)C(Cc3c(O)cc(O)cc3O)OC(=O)c3cc(O)c(O)c(O)c3)c2OC1c1cc(O)c(O)c(O)c1)c1cc(O)c(O)c(O)c1 (centres unmarked)	Pancreatic triacylglycerol lipase (Sus scrofa, UniProt P00591)	=	120
